# Target desc: RON (human) (Homo sapiens, UniProt Q04912)
# Sequence (Q04912 25-1400): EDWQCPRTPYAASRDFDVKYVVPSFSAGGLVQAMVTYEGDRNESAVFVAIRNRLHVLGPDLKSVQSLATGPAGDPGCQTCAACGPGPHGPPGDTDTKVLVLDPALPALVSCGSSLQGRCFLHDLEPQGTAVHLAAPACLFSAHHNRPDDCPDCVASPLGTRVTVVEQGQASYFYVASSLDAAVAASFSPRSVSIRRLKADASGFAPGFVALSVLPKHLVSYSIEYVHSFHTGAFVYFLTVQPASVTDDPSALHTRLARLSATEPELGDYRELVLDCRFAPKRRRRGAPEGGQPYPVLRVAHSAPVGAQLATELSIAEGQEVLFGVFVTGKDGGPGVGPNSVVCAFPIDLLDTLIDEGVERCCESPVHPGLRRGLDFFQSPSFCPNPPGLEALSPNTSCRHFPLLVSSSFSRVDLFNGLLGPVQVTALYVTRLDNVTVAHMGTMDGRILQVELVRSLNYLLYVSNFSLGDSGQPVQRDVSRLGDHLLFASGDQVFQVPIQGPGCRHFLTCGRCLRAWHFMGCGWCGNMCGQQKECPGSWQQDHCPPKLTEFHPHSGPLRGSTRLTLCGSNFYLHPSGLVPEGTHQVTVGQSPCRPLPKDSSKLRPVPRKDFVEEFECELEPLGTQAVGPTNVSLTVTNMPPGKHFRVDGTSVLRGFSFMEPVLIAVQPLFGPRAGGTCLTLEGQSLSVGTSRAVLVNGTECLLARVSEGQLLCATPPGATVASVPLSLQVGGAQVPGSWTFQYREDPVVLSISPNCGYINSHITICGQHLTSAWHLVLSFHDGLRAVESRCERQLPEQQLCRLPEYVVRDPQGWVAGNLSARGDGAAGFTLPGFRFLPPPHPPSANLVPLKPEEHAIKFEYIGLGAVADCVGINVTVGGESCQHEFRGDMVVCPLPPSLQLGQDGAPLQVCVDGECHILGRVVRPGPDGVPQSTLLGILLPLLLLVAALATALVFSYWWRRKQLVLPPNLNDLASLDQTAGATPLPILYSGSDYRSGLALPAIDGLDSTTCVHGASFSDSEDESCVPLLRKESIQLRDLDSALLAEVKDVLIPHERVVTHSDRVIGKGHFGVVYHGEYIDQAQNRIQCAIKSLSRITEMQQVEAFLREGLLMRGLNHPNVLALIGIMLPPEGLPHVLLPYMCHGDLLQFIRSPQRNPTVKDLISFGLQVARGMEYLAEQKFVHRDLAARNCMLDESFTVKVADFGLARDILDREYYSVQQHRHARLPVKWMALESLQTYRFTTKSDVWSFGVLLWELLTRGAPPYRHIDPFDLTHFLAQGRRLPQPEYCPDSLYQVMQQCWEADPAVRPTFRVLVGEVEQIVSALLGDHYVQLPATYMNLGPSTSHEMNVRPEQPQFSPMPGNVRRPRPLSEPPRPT
# Assay name: RON (human) AlphaScreen kinase assay, Km of ATP
# Assay type: biochemical
# Reported conditions: AlphaScreen, Km of ATP; read-out: RON biochemical IC50
Value type: IC50

Consider the reported IC50 for these compounds:
Compound	IC50
CC(Oc1c(N)ncc2c(-c3cnn(C4CCNCC4)c3)coc12)c1ccccc1OC(F)(F)F (stereo not shown)	500 to 5000 nM
CC(Oc1c(N)ncc2c(-c3cnn(C4CCNCC4)c3)coc12)c1c(F)ccc(F)c1Cl (stereo not shown)	< 500 nM
C[C@@H](Oc1c(N)ncc2c(-c3ccc(N4CCN(C)CC4)cc3)coc12)c1c(Cl)ccc(F)c1Cl	< 500 nM

Switching to the query record.
Problem: Find IC50 (RON (human) (Homo sapiens, UniProt Q04912)) for the entry C[C@@H](Oc1c(N)ncc2c(C3=CCN(C(=O)[C@H](N)Cc4cnc[nH]4)CC3)coc12)c1c(Cl)ccc(F)c1Cl
Result: 5000 to 20000 nM
